Data origin, for the record: patent US20090305281

# assayTarget: HIV-1 reverse transcriptase (HXB2, group M subtype B) (Human immunodeficiency virus 1, UniProt P04585 SEQ:1-560)
# methodSummary: inhibition; DDDP, K+ buffer
# conditionParameters: tags: expressed in E. coli; hairpin + G4, T8 connector
assayMetric: IC50 (nM)
Field format: number, assumed nM, no unit text.

Prompt: Requested read-out: IC50. Entry: CGCCTGATTAGCGATACTCAGGCGTTTTTTTTGGGTGGGTGGGTGGG (ssDNA) [L4]
Response: 28
